Exercise: state measured peptide exchange yield for each of the binders provided.
- TARGET_OR_TEST_SYSTEM: T1, HLA-A*02:01 (human)
- T1 construct: Peptide-receptive HLA-A*02:01 monomer obtained by UV cleavage of a UV-sensitive ligand; captured on streptavidin plates; also called peptide-receptive MHC molecules; MHC class I
- EXPERIMENTAL_DETAILS: UV-ligand exchange, anti-b2m ELISA; grade of peptide exchange yield (>10% = +; >20% = ++; >50 = +++; >75% = ++++)

Prompt line: Name the reported peptide exchange yield value associated with the binder YLAEPQWAV
Response line: > 75%

Prompt line: Please give the measured peptide exchange yield for this binder: ILSSACYTV
Response line: > 75%

Prompt line: Need peptide exchange yield, item GLISSIEAQL
Response line: > 75%

Prompt line: // returns reported peptide exchange yield for input SLFPYVVLI
Response line: > 75%

Prompt line: Need peptide exchange yield of VCPPGGIQEV , thanks.
Response line: 50 to 75%

Prompt line: Consider the binder shown here: SMLNNIINL What is its recorded peptide exchange yield?
Response line: 50 to 75%

Prompt line: Would you kindly share the measured peptide exchange yield for ALDTFSVQV ?
Response line: > 75%

Prompt line: Need peptide exchange yield of FLQLETEQV , thanks.
Response line: > 75%

Prompt line: // peptide exchange yield lookup, key: RLNGEGVGQVNISV
Response line: 20 to 50%

Prompt line: For GLGDDSFPI , what is its reported peptide exchange yield?
Response line: > 75%

Values from patent US20200155602A1
